Some molecules, each annotated with its measured pIC50.
tested on: primary human endothelial colony-forming cells (ECFCs), cord blood clones; conditions: read-out: IC50, range between individual ECFC clones
pIC50: −log10 of the molar value.

[[record]]
molecule = "O.[Cl][Cd][Cl] [CdCl2, Cadmium Chloride Hydrate]"
target = "primary human endothelial colony-forming cells (ECFCs), cord blood clones"
endpointvalue = "4.74 to 4.91"


API: the following record is the query input.
Memo: CCC[CH2][Sn]([Cl])([CH2]CCC)[CH2]CCC [TBT, Tributyltin Chloride] , reported pIC50: 5.64 to 5.92

###

As a worked illustration, we turn to IC10, range between individual ECFC clones data collected for primary human endothelial colony-forming cells (ECFCs), cord blood clones.

These solved cases illustrate the format of a correct answer.
[[record]]
molecule = "CCC[CH2][Sn]([Cl])([CH2]CCC)[CH2]CCC [TBT, Tributyltin Chloride]"
endpointvalue = "0.2 to 0.5 µM"

[[record]]
molecule = "O.[Cl][Cd][Cl] [CdCl2, Cadmium Chloride Hydrate]"
endpointvalue = "4.2 to 9.3 µM"

[[record]]
molecule = "CC1=CC(=O)c2ccccc2C1=O [Menadione, 2-methyl-1,4-naphthoquinone, reference compound]"
endpointvalue = "5.6 to 19.0 µM"


Considering O=[As][O-].[Na+] [NaAsO2, Sodium (meta)arsenite] , its IC10, range between individual ECFC clones with primary human endothelial colony-forming cells (ECFCs), cord blood clones was recorded as 1.1 to 5.0 µM
